- test-summary: Competitive inhibition of pig uterine fluid fully reduced PAP using p-NPP as substrate measured at 4.9 by UV-Vis spectrophotometric analysis
- Type: tissue-based, Sus scrofa
pKi: −log10 of the molar value.

{"molecule": "CCCCCCCCCCCCCCCCOCC(=O)NC(c1ccccc1)P(=O)(O)O (racemic)", "pKi": 6.26}
{"molecule": "CCCCCCCCCCCC(=O)NC(c1ccccc1)P(=O)(O)O (racemic)", "pKi": 4.51}
{"molecule": "CCCCCCCCCCCCCCCC(=O)NC(c1ccc(OCC)cc1)P(=O)(O)O (racemic)", "pKi": 6.21}
{"molecule": "CCCCCCCCCCCCCC(=O)NC(c1ccc(OCC)cc1)P(=O)(O)O (racemic)", "pKi": 5.52}
{"molecule": "CCCCCCCCCCCCCCCCCC(=O)NC(c1ccc(OC)cc1)P(=O)(O)O (racemic)", "pKi": 6.73}

----------
# Lookup of reported pKi keyed by entry
- test-summary: Competitive inhibition of pig uterine fluid fully reduced PAP using p-NPP as substrate measured at 4.9 by UV-Vis spectrophotometric analysis
- Type: tissue-based, Sus scrofa
pKi: −log10 of the molar value.

{"compound": "CCCCCCCCCCCCCC(=O)NC(c1ccccc1)P(=O)(O)O (racemic)", "pKi": 6.49}
{"compound": "CCCCCCCCCCCC(=O)NC(c1ccc(OC)cc1)P(=O)(O)O (racemic)", "pKi": 5.52}
{"compound": "CCCCCCCCCCCCCCCCCC(=O)NC(c1ccc(OCC)cc1)P(=O)(O)O (racemic)", "pKi": 5.22}
{"compound": "CCCCCCCCCCCCCCCCCC(=O)NC(c1ccccc1)P(=O)(O)O (racemic)", "pKi": 6.77}
{"compound": "CCCCCCCCCC(=O)NC(c1ccccc1)P(=O)(O)O (racemic)", "pKi": 4.72}
{"compound": "CCCCCCCCCCCCCCCC(=O)NC(c1ccccc1)P(=O)(O)O (racemic)", "pKi": 6.49}
{"compound": "CCCCCCCCCCCCCCCCOCC(=O)NC(c1ccc(OC)cc1)P(=O)(O)O (racemic)", "pKi": 6.57}
{"compound": "CCCCCCCCCCCCCCCC(=O)NC(c1ccc(OC)cc1)P(=O)(O)O (racemic)", "pKi": 6.47}
{"compound": "CCCCCCCCOCC(=O)NC(c1ccccc1)P(=O)(O)O (racemic)", "pKi": 4.25}
{"compound": "CCCCCCCCCCCCCC(=O)NC(c1ccc(OC)cc1)P(=O)(O)O (racemic)", "pKi": 6.40}

The measured values listed here are drawn from ChEMBL document CHEMBL5325435.
